# measurement.target: GR LBD (Homo sapiens, UniProt P04150)
# Construct: The wild-type GR-LBD (amino acid residues 522-777) was cloned into a pFASTBAC plasmid; 6X-His (TEV-cleavable) (cleaved yes); made in house; host or cells: SF9 insect cells (baculovirus, pFASTBAC)
# Sequence (P04150 522-777): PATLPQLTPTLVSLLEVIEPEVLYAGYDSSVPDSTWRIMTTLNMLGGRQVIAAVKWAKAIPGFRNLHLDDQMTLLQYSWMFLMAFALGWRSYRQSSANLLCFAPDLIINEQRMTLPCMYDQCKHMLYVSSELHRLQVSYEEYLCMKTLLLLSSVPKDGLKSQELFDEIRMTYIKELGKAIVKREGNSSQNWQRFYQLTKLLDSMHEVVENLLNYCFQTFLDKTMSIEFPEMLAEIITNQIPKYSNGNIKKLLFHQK
# assay.details: Ligand titration assay via fluorescence polarimetry (displacement of F-Dex)
# Format: binding
# experimental.setup: log(inhibitor) vs. normalized response, FIG. 7
experimental.readout: Fit of FP dose response curve (half-maximal FP signal)

>>> readout_value("CCOC[C@]12Cc3cnn(-c4ccc(F)cc4)c3C=C1CCN(S(=O)(=O)c1ccc(C(F)(F)F)cc1)C2 [C297]")
"able to fit data"
>>> readout_value("O=c1[nH]c(=O)c(Cc2cccc(C(F)(F)F)c2)c([C@H]2CC[C@H](c3ccccc3)CC2)[nH]1 [C335]")
"able to fit data"
>>> readout_value("C[C@]12CCC(=O)C=C1CC[C@@H]1[C@@H]2[C@@H](O)C[C@@]2(C)[C@H]1CC[C@]2(O)C(=O)CO [cortisol]")
"able to fit data"
